# Experimental System: ERG_Y373A (Homo sapiens, UniProt P11308, Y373A)
# Test Details: biochemical
pKd: −log10 of the molar value. Where no end group is shown, it is not given here.
Parameter Measured: pKd

Measured pKd of LPPYLFT [EIP1] : < 4.00

All values here come from paper PMC5443258.
